Where these numbers come from: patent US12624096B2

# tested_target: dGA (Homo sapiens, UniProt P10636)
# Sequence (P10636 614-707): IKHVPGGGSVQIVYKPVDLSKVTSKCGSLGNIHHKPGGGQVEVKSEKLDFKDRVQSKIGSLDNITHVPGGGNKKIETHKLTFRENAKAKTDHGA
# assay_details: Biacore X100 SPR, scAb captured via anti-HuCk, dGA as analyte
# Type: binding
# run_parameters: dissociation rate
# Protocol: Surface plasmon resonance (SPR) is widely regarded as the gold standard for real time measurement of protein-protein interactions such as antibody binding. […] The single cycle kinetics protocol was similar and utilised the same level of scAb capture. […] Binding responses were analysed in Biacore X100 evaluation software and data fitted to a 1:1 binding model to obtain kinetic and affinity characterisation.
property_label: Kd
I'd appreciate it if you wrote the number followed by its unit.

Exercise: What does the data say about its Kd? Entry: NS2A1: anti-tau clone, SEQ ID NO: 220 (protein, NS2A1 amino acid sequence) scFv: QVQLQESGPSLVKPSQTLSLTCTVSGFSLSTNSVGWVRQAPGKAPEWVAGIDTDGEEGFNPVLKSRLSITRDTSKSQVSLSLSNVTSEDTAVYYCGRSYRTDGLAYGYVQAIDYWGPGLLVTISSEGKSSGASGESKVDDQSVLTQPSSVSGSPGQTVSITCSGSYIGSSGVGWFQQLPGSGLRTIIVASDGRPSGVPDGFSMSKSGNTATLTISSLQAEDEADYFCGSSDRTQYTGLFGSGTRLTVLG
Solution: 0.00102 s⁻¹
